All values here come from PubChem BioAssay AID588780.

test system: H9c2 cardiomyocytes, 2-deoxyglucose stress, ATP luminescence, 2 h; experiment: H9c2 cell survival under 2-deoxyglucose stress – uHTS hits, dose response (AID 588780)
Activity calls are given as the source filed them.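 Rule for the calls: active = compounds whose fitted half-maximal concentration in the cell-protection dose series is at or below a set limit; inactive = the rest.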
Possible outcomes: active, inactive

[[record]]
molecule = "C=CCOC(=O)COc1ccc2c3c(c(=O)oc2c1)CCCC3"
target_or_test_system = "H9c2 cardiomyocytes, 2-deoxyglucose stress, ATP luminescence, 2 h"
class_assignment = "active"

[[record]]
molecule = "CCN(CC(=O)Nc1ccc(OC)cc1)C(=O)c1cc(-c2cccs2)nn1-c1ccccc1"
target_or_test_system = "H9c2 cardiomyocytes, 2-deoxyglucose stress, ATP luminescence, 2 h"
class_assignment = "active"

[[record]]
molecule = "COc1ccc(N(CC(=O)Nc2ccc3c(c2)OCO3)S(=O)(=O)c2ccccc2)c(OC)c1"
target_or_test_system = "H9c2 cardiomyocytes, 2-deoxyglucose stress, ATP luminescence, 2 h"
class_assignment = "active"

[[record]]
molecule = "O=C(CNC(=O)c1nc[nH]c1C(=O)NCc1ccccc1)OCc1ccccc1"
target_or_test_system = "H9c2 cardiomyocytes, 2-deoxyglucose stress, ATP luminescence, 2 h"
class_assignment = "inactive"

[[record]]
molecule = "COc1ccc(OC)c(Nc2nc(N)nc(-c3cc4ccccc4o3)n2)c1"
target_or_test_system = "H9c2 cardiomyocytes, 2-deoxyglucose stress, ATP luminescence, 2 h"
class_assignment = "inactive"

[[record]]
molecule = "Cc1sc2nc(NCCO)[nH]c(=O)c2c1C"
target_or_test_system = "H9c2 cardiomyocytes, 2-deoxyglucose stress, ATP luminescence, 2 h"
class_assignment = "inactive"

[[record]]
molecule = "Cc1cccc(NC(=O)c2oc3ccc(S(=O)(=O)N4CCOCC4)cc3c2C)c1C"
target_or_test_system = "H9c2 cardiomyocytes, 2-deoxyglucose stress, ATP luminescence, 2 h"
class_assignment = "inactive"

[[record]]
molecule = "CCOCc1c(C(=O)NC2=Nc3ccccc3NC(CC)=C2C(=O)OCC)oc2ccccc12"
target_or_test_system = "H9c2 cardiomyocytes, 2-deoxyglucose stress, ATP luminescence, 2 h"
class_assignment = "inactive"

[[record]]
molecule = "CC(=O)Nc1ccc(Nc2nc(-c3sc(NC(C)=O)nc3C)cs2)cc1"
target_or_test_system = "H9c2 cardiomyocytes, 2-deoxyglucose stress, ATP luminescence, 2 h"
class_assignment = "active"

[[record]]
molecule = "COc1ccc(Nc2nnc(SCc3cc(=O)n4ccsc4n3)s2)cc1"
target_or_test_system = "H9c2 cardiomyocytes, 2-deoxyglucose stress, ATP luminescence, 2 h"
class_assignment = "active"

[[record]]
molecule = "O=C(NCC(=O)N(Cc1cccs1)C(C(=O)NC1CCCCC1)c1ccco1)c1cccs1 (configuration not stated)"
target_or_test_system = "H9c2 cardiomyocytes, 2-deoxyglucose stress, ATP luminescence, 2 h"
class_assignment = "active"

[[record]]
molecule = "O=C(/C=C/NNC(=O)c1ccccc1)c1ccc(Br)cc1"
target_or_test_system = "H9c2 cardiomyocytes, 2-deoxyglucose stress, ATP luminescence, 2 h"
class_assignment = "inactive"

[[record]]
molecule = "COc1ccc(C(C(=O)NC2CCCCC2)N(Cc2cccs2)C(=O)Cc2c[nH]c3ccccc23)cc1OC (configuration not stated)"
target_or_test_system = "H9c2 cardiomyocytes, 2-deoxyglucose stress, ATP luminescence, 2 h"
class_assignment = "active"

[[record]]
molecule = "COc1cc(/C=C/C(=O)CC(=O)/C=C/c2ccc(O)c(OC)c2)ccc1O"
target_or_test_system = "H9c2 cardiomyocytes, 2-deoxyglucose stress, ATP luminescence, 2 h"
class_assignment = "inactive"

[[record]]
molecule = "Cc1cc2ccccc2c(=O)[nH]1"
target_or_test_system = "H9c2 cardiomyocytes, 2-deoxyglucose stress, ATP luminescence, 2 h"
class_assignment = "active"

[[record]]
molecule = "COc1ccc(-c2cc(C(=O)N(C)Cc3ccccc3F)c3ccccc3n2)cc1OC"
target_or_test_system = "H9c2 cardiomyocytes, 2-deoxyglucose stress, ATP luminescence, 2 h"
class_assignment = "inactive"

[[record]]
molecule = "N#CCCN(C(=O)COC(=O)CCc1nc2ccccc2c(=O)[nH]1)c1ccccc1F"
target_or_test_system = "H9c2 cardiomyocytes, 2-deoxyglucose stress, ATP luminescence, 2 h"
class_assignment = "inactive"

[[record]]
molecule = "O=c1[nH]n(Cc2ccccc2)c(=O)c2ccccc12"
target_or_test_system = "H9c2 cardiomyocytes, 2-deoxyglucose stress, ATP luminescence, 2 h"
class_assignment = "inactive"

[[record]]
molecule = "COC(=O)c1cc2c(C)c(C)c3ccccn3c-2c1C(=O)OC"
target_or_test_system = "H9c2 cardiomyocytes, 2-deoxyglucose stress, ATP luminescence, 2 h"
class_assignment = "inactive"

[[record]]
molecule = "O=c1[nH]ccc2c(O)cccc12"
target_or_test_system = "H9c2 cardiomyocytes, 2-deoxyglucose stress, ATP luminescence, 2 h"
class_assignment = "inactive"

[[record]]
molecule = "CN(CC(=O)Nc1c(Cl)cccc1Cl)C(=O)Cn1[nH]c(=O)c2ccccc2c1=O"
target_or_test_system = "H9c2 cardiomyocytes, 2-deoxyglucose stress, ATP luminescence, 2 h"
class_assignment = "inactive"

[[record]]
molecule = "Cc1ccc(C)c(S(=O)(=O)N2CCN(C(=O)CCc3nc4ccccc4c(=O)[nH]3)CC2)c1"
target_or_test_system = "H9c2 cardiomyocytes, 2-deoxyglucose stress, ATP luminescence, 2 h"
class_assignment = "inactive"

[[record]]
molecule = "Cc1sc2nc(CSCC(=O)N(C)CC(=O)Nc3ccc(F)cc3)[nH]c(=O)c2c1C"
target_or_test_system = "H9c2 cardiomyocytes, 2-deoxyglucose stress, ATP luminescence, 2 h"
class_assignment = "inactive"

[[record]]
molecule = "COc1cc(-c2cc3nc(NCCOc4ccccc4)ccn3n2)cc(OC)c1OC"
target_or_test_system = "H9c2 cardiomyocytes, 2-deoxyglucose stress, ATP luminescence, 2 h"
class_assignment = "active"

[[record]]
molecule = "Cc1[nH]c2ccccc2c1/C=N/NC(=O)c1cc(-c2ccccc2)n[nH]1"
target_or_test_system = "H9c2 cardiomyocytes, 2-deoxyglucose stress, ATP luminescence, 2 h"
class_assignment = "inactive"

[[record]]
molecule = "CCC(CC)C(=O)N(CCc1ccc(OC)cc1)Cc1nc2ccccc2c(=O)[nH]1"
target_or_test_system = "H9c2 cardiomyocytes, 2-deoxyglucose stress, ATP luminescence, 2 h"
class_assignment = "inactive"

[[record]]
molecule = "CC1(C)CC(=O)C2=C(C1)N(CCN1CCOCC1)C1=C(C(=O)CC(C)(C)C1)C2c1ccc(Cl)cc1"
target_or_test_system = "H9c2 cardiomyocytes, 2-deoxyglucose stress, ATP luminescence, 2 h"
class_assignment = "inactive"

[[record]]
molecule = "O=S(=O)(c1ccc(Cl)cc1)c1cc(O)ccc1O"
target_or_test_system = "H9c2 cardiomyocytes, 2-deoxyglucose stress, ATP luminescence, 2 h"
class_assignment = "inactive"

[[record]]
molecule = "COc1ccc(Cl)cc1NC(=O)CCS(=O)(=O)c1cc2c(cc1C)NC(=O)CO2"
target_or_test_system = "H9c2 cardiomyocytes, 2-deoxyglucose stress, ATP luminescence, 2 h"
class_assignment = "active"

[[record]]
molecule = "COc1ccc([N+](=O)[O-])cc1NC(=O)C(C)OC(=O)Cn1[nH]c(=O)c2ccccc2c1=O (configuration not stated)"
target_or_test_system = "H9c2 cardiomyocytes, 2-deoxyglucose stress, ATP luminescence, 2 h"
class_assignment = "inactive"

[[record]]
molecule = "COc1ccc(Nc2nnc(-c3ccc(O)cc3)c3ccccc23)cc1C(N)=O"
target_or_test_system = "H9c2 cardiomyocytes, 2-deoxyglucose stress, ATP luminescence, 2 h"
class_assignment = "inactive"

[[record]]
molecule = "Cc1ccc2c(C)nc(Nc3nc(CSc4nc5ccccc5[nH]4)cc(=O)[nH]3)nc2c1"
target_or_test_system = "H9c2 cardiomyocytes, 2-deoxyglucose stress, ATP luminescence, 2 h"
class_assignment = "inactive"

[[record]]
molecule = "COCCNC(=O)COC(=O)c1ccc(OCC(=O)Nc2ccccc2OC)c(OC)c1"
target_or_test_system = "H9c2 cardiomyocytes, 2-deoxyglucose stress, ATP luminescence, 2 h"
class_assignment = "active"

[[record]]
molecule = "Cc1ccc(C)c(S(=O)(=O)N2CCN(C(=O)Cn3[nH]c(=O)c4ccccc4c3=O)CC2)c1"
target_or_test_system = "H9c2 cardiomyocytes, 2-deoxyglucose stress, ATP luminescence, 2 h"
class_assignment = "inactive"

[[record]]
molecule = "CC(=O)Nc1ccc(NS(=O)(=O)c2cc(-c3n[nH]c(=O)c4ccccc34)ccc2C)cc1"
target_or_test_system = "H9c2 cardiomyocytes, 2-deoxyglucose stress, ATP luminescence, 2 h"
class_assignment = "inactive"

[[record]]
molecule = "COC(=O)C1=C(C)N(CCc2ccc(OC)cc2)C(=O)C1"
target_or_test_system = "H9c2 cardiomyocytes, 2-deoxyglucose stress, ATP luminescence, 2 h"
class_assignment = "inactive"

[[record]]
molecule = "COc1ccc(/C=C/C(=O)c2ccccc2O)cc1CN1CCOCC1"
target_or_test_system = "H9c2 cardiomyocytes, 2-deoxyglucose stress, ATP luminescence, 2 h"
class_assignment = "inactive"

[[record]]
molecule = "CCOC(=O)c1c(NC(=O)COC(=O)Cc2n[nH]c(=O)c3ccccc23)sc(C(=O)NC)c1C"
target_or_test_system = "H9c2 cardiomyocytes, 2-deoxyglucose stress, ATP luminescence, 2 h"
class_assignment = "inactive"

[[record]]
molecule = "Cc1nn(-c2ccccc2)c(C)c1/C=N/NC(=O)c1cc(C2CC2)[nH]n1"
target_or_test_system = "H9c2 cardiomyocytes, 2-deoxyglucose stress, ATP luminescence, 2 h"
class_assignment = "active"

[[record]]
molecule = "Cc1sc2nc(CSCC(=O)N(CCC#N)c3ccccc3F)[nH]c(=O)c2c1C"
target_or_test_system = "H9c2 cardiomyocytes, 2-deoxyglucose stress, ATP luminescence, 2 h"
class_assignment = "active"

[[record]]
molecule = "CC(C)(C)NC(=O)c1cccc(NC(=O)c2ccc(NC(=O)c3ccco3)cc2)c1"
target_or_test_system = "H9c2 cardiomyocytes, 2-deoxyglucose stress, ATP luminescence, 2 h"
class_assignment = "active"

[[record]]
molecule = "Nc1cc2[nH]c(=O)c3ccccc3c2cc1Br"
target_or_test_system = "H9c2 cardiomyocytes, 2-deoxyglucose stress, ATP luminescence, 2 h"
class_assignment = "inactive"

